# measuredOn: PD-1/PD-L1 (Homo sapiens (Human), UniProt Q9NZQ7)
# Sequence (Q9NZQ7 19-238): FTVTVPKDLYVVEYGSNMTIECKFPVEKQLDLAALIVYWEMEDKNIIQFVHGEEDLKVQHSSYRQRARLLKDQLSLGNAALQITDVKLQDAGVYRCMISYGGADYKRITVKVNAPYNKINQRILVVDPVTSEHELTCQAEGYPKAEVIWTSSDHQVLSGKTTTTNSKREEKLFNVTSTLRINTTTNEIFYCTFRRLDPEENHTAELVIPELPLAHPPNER
# procedureSummary: PD-1/PD-L1 Homogeneous Time-Resolved Fluorescence (HTRF) Binding Assay
# protocolConditions: recombinant human PD-1 (3 nM) and PD-L1 (10 nM), 25° C., PBS pH 7.4
readoutLabel: IC50

Given the molecule Cc1c(-c2nc3cc(CN4CC[C@@H](C(=O)O)C4)cc(C#N)c3o2)cccc1-c1cccc(-c2nc3c(s2)CN(CC2CC2)CC3)c1C , what is its reported IC50?
≤ 10 nM

Given the molecule Cc1c(-c2nc3cc(CN4CC[C@@H](O)C4)cc(C#N)c3o2)cccc1-c1cccc(NC(=O)c2nc3c(n2C)CCN(CC2CCC(C)(C(=O)O)CC2)C3)c1Cl (single isomer, unassigned; peak 1) [Example 268] , what is its reported IC50?
≤ 10 nM

Given the molecule Cc1c(Nc2nccc3cc(CN4CC(O)C4)cnc23)cccc1-c1cccc(-c2nc3cc(CN4CC[C@@H](C(=O)O)C4)cc(C#N)c3o2)c1C , what is its reported IC50?
≤ 10 nM

Data provenance: patent US10308644B2
